- System: gamma-herpes variant that expresses GFP under a CMV promoter (GHV-Bac-GFP)
- Protocol Summary: Herpes virus assay: GHV-Bac-GFP infection of 3T3 monolayers, cytopathic effect and GFP spread
- Type: cell-based, gamma-herpes virus
- Conditions Used: 3T3 cells, GHV-Bac-GFP, 10 μM, after 7 days

{"columns": ["Compound", "Tested System", "Herpes phenotype group"],
 "data": [
  ["CCOC(=O)c1ccc(-c2ccc3c(-c4ccc(Br)cc4F)n[nH]c3n2)cc1 [APcK-50]", "gamma-herpes variant that expresses GFP under a CMV promoter (GHV-Bac-GFP)", "(iii)"],
  ["Cc1ccc(NC(=O)c2ccc(CN3CCN(C)CC3)cc2)cc1Nc1nccc(-c2cccnc2)n1 [CGP-2, reference compound]", "gamma-herpes variant that expresses GFP under a CMV promoter (GHV-Bac-GFP)", "(ii)"],
  ["O=C(c1ccccc1)c1ccc(-c2ccc3c(-c4ccc(F)cc4)n[nH]c3n2)cc1 [APcK-36]", "gamma-herpes variant that expresses GFP under a CMV promoter (GHV-Bac-GFP)", "(iii)"],
  ["CC(=O)Nc1cccc(-c2ccc3c(-c4ccc(F)cc4)n[nH]c3n2)c1 [APcK-103]", "gamma-herpes variant that expresses GFP under a CMV promoter (GHV-Bac-GFP)", "(iii)"],
  ["CC(=O)Nc1ccc(-c2ccc3c(-c4ccc(Cl)c(Cl)c4)n[nH]c3n2)cc1 [APcK-25]", "gamma-herpes variant that expresses GFP under a CMV promoter (GHV-Bac-GFP)", "(iii)"],
  ["CCOC(=O)c1ccc(-c2ccc3c(-c4ccc(F)cc4)n[nH]c3n2)cc1 [APcK-53]", "gamma-herpes variant that expresses GFP under a CMV promoter (GHV-Bac-GFP)", "(iii)"]
]}

Cited source for all entries: patent US8268809B2
